Value source: patent US20140072563A1

# Study System: hErbB3.mmh (soluble monomeric human ErbB3 extracellular domain with C-terminal myc-myc-hexahistidine tag) (human, UniProt P21860 20-642)
# Sequence (P21860 other isoform, or with tags, fused parts or gaps): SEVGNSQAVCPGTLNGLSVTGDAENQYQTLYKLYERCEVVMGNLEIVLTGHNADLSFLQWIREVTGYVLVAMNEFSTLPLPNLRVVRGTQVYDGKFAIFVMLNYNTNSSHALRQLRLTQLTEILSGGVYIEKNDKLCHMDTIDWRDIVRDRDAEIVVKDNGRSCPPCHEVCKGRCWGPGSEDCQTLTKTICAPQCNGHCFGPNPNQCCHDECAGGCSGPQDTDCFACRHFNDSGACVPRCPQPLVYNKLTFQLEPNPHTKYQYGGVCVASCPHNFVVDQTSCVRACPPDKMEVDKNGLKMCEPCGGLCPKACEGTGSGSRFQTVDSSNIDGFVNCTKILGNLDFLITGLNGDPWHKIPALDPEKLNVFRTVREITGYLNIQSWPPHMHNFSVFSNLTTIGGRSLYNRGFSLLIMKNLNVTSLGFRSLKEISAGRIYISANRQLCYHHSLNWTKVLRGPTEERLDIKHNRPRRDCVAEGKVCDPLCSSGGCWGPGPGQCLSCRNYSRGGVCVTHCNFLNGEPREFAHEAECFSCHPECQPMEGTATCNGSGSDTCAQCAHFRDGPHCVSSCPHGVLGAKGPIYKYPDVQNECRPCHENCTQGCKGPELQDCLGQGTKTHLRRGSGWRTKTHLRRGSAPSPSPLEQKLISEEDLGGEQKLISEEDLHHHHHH
# Assay Name: SPR (Biacore), 25 C, mAb capture format
Metric Name: kon (M⁻¹ s⁻¹)
Give a bare numeral; the unit M⁻¹ s⁻¹ is implied.

Binder	Unit Label	kon
H2M1937N (antibody, V domains shown, Hybridoma chimeric antibody: human variable domains, mouse IgG2 Fc (H2M prefix)) VH: QVQLQQWDAGLLKPSETLSLTCAVYGGSFSSYYWSWIRQPPGKGLEWIGEINHRGSTNYNPSLKSRVTISVDTSKNQFSLKLRSVTAADTAVYYCARGGVAARPDWHFFDYWGQGTLVTVSS VL: DIQMTQSPSSLSASVGDRVTITCRASQVIRNDLGWFQQRPGKAPKRLIYAASSLQSEVPSRFSGSGSGTEFTLTITSLQPEDFATYYCLQHNSYPLTFGQGTRLEIK	M⁻¹ s⁻¹	82600
H4H2138P (antibody, V domains shown, Fully human, human IgG4 Fc (H4H prefix)) VH: QVQLQESGPGLVKPSQTLSLTCTVSGGSINSGGYYWSWIRQHPGKGLEWIGYISYSGNTNYNPSLKSRVTISVDTSKNQFSLTLTSVTAADTAVYYCARDSDVDTGLVDGFDVWGQGTMVTVSS VL: DIVMTQSPSSVSASVGDRVTITCRASQGVSSWLAWYQQKPGKAPKLLIYTTSSLQSGVPSRFSGSGSGTDFTLTISSLQPEDFATYYCQQSNSFPFTFGPGTKVEIK	M⁻¹ s⁻¹	2.39e+06
H4H2102P (antibody, V domains shown, Fully human, human IgG4 Fc (H4H prefix)) VH: EVQLVESGGGLVQPGGSLRLSCAASGFTFSNYDIHWVRQATGKGLEWVSAIGPAGDTYYSDSVKGRFTISREDAKNSLYLQMSSLRAGDTAVYYCASEGIAVRPDDYYGMDVWGQGTTVTVSA VL: DIQLTQSPSFLSASVGDRVTITCWASQDITSYLAWYQKKPGKAPKLLIYAASTLQSGVPSRFSGSGSGTEFTLTISSLQPEDFAAYYCQQLNSYPLTFGGGTKVDIKR	M⁻¹ s⁻¹	886000

Field: next binder
Enquiry: kon lookup needed for H4H2140P (antibody, V domains shown, Fully human, human IgG4 Fc (H4H prefix)) VH: EVQLVESGGGLVQPGGSLRLSCAASGFSVSYYDMHWVRQVTGKGLEWVSAIGPAGDTYYPGSVKGRFTISREDATNSLYLQIHSLGAGDTAVYYCAREGAIAARPDDYYGMDVWGQGTTVTVSS VL: DIQLTQSPSFLSASVGDRVTITCWASQDISSYLAWYQQKPGKAPKLLIYAASTLQSGVPSRFSGSGSGTEFTLTISSLQPEDFATYYCQQLNSYPLTFGGGTKVEIKR , thanks.
Return: 1.66e+06
